# measurement_notes: in vivo
# test_parameters: male, C57, mouse, ip, 10 mg/kg, T1/2, plasma, 10 mg/kg IP, mice
measured_parameter: half-life (h)
Numbers only here, please. The scale is h.

[ask] Value lookup for half-life; key = COc1ccccc1CCCN1CC[C@H]2[C@@H](C1)c1cccc3c1N2CCN3C [Compound I-10]
[reply] 1.06

* * *

# measurement_notes: in vivo
# test_parameters: male, C57, mouse, ip, 10 mg/kg, T1/2, brain, 10 mg/kg IP, mice
measured_parameter: half-life (min)
Field format: number, assumed min, no unit text.

[ask] I would be grateful if you could share the reported half-life for COc1ccccc1CCCN1CC[C@H]2[C@@H](C1)c1cccc3c1N2CCN3C [Compound I-10] .
[reply] 48.1
